- System: Abp1 PPIs
- experimental protocol: DHFR-PCA of Abp1 SH3-swapped baits (Fig. 2B-D, S2C, S2F)
- Type: cell-based, Saccharomyces cerevisiae
- settings: number of PPIs; Abp1 SH3-swapped with the listed SH3; DHFR-PCA; Fig2D,S2F
parameter measured: SH3-dependent PPIs gained by Abp1
Kindly provide the number alone.

For this molecule ( SHO1 (protein, UniProt P40073 1-367, looked up) High osmolarity signaling …: MSISSKIRPTPRKPSRMATDHSFKMKKFYADPFAISSISLAIVSWVIAIGGSISSASTNESFPRFTWWGIVYQFLIICSLMLFYCFDLVDHYRIFITTSIAVAFVYNTNSATNLVYADGPKKAAASAGVILLSIINLIWILYYGGDNASPTNRWIDSFSIKGIRPSPLENSLHRARRRGNRNTTPYQNNVYNDAIRDSGYATQFDGYPQQQPSHTNYVSSTALAGFENTQPNTSEAVNLHLNTLQQRINSASNAKETNDNSNNQTNTNIGNTFDTDFSNGNTETTMGDTLGLYSDIGDDNFIYKAKALYPYDADDDDAYEISFEQNEILQVSDIEGRWWKARRANGETGIIPSNYVQLIDGPEEMHR ), measured SH3-dependent PPIs gained by Abp1 is 1

// provenance: paper PMC7954794
